Test: Differential nuclear staining cytotoxicity assay, NALM6
Type: cell-based
Conditions: human; CC50 in non-cancerous cells divided by CC50 in NALM6; read-out: Selective cytotoxicity index (SCI)
Readout type: selectivity ratio
Number only, no unit.

Q) What value of measured selectivity ratio is listed for COc1ccc(-c2cnn(CC(=O)Nc3cnn(C)n3)c2)cc1C(F)(F)F [PTA-1] ?
A) 8.65
